All figures here come from patent US20220251241A1.

# reported koff; entries follow
- ASSAY_SYSTEM: HTRA1 (construct not given) (Homo sapiens (Human), UniProt Q92743 23-480, limits assumed)
- Sequence (Q92743 23-480 limits assumed): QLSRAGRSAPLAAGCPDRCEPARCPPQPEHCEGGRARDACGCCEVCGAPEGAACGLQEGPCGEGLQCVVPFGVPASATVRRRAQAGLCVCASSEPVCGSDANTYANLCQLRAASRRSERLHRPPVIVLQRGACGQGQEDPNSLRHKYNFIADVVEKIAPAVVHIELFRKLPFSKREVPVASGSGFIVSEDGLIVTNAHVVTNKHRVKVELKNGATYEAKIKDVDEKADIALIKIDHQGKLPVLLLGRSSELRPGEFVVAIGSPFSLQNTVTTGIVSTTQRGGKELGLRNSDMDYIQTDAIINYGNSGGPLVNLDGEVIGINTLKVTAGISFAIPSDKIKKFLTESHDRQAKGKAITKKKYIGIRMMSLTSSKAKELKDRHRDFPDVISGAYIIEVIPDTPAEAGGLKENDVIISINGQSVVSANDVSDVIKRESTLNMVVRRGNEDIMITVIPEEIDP
- METHOD_DESCRIPTION: SPR (Biacore)
State just the number; it will be interpreted in s⁻¹.

hz24F7.v2 S91L (antibody, human IgG1, kappa, N297G, V domains shown) VH: QVQLVQSGAEVKKPGASVKVSCKASGYTFTDYEMHWVRQAPGQRLEWMGAIDPETGGTAYNQKFKGRVTITADKSASTAYMELSSLRSEDTAVYYCTREGYSYEGGGYYFDYWGQGTLVTVSS VL: DIQMTQSPSSLSASVGDRVTITCSVSSSVSYMYWYQQKPGKAPKLLIYDTSNLASGVPSRFSGSGSGTDFTFTISSLQPEDIATYYCQQWLSYPTFGQGTKLEIKR ... 0.000161
hz24F7.v2 S92Y (antibody, human IgG1, kappa, N297G, V domains shown, hz24F7.v2 with a substitution in light chain CDR3) VH: QVQLVQSGAEVKKPGASVKVSCKASGYTFTDYEMHWVRQAPGQRLEWMGAIDPETGGTAYNQKFKGRVTITADKSASTAYMELSSLRSEDTAVYYCTREGYSYEGGGYYFDYWGQGTLVTVSS VL: DIQMTQSPSSLSASVGDRVTITCSVSSSVSYMYWYQQKPGKAPKLLIYDTSNLASGVPSRFSGSGSGTDFTFTISSLQPEDIATYYCQQWSYYPTFGQGTKLEIKR ... 0.000275
hz24F7.v2 S92T (antibody, human IgG1, kappa, N297G, V domains shown, hz24F7.v2 with a substitution in light chain CDR3) VH: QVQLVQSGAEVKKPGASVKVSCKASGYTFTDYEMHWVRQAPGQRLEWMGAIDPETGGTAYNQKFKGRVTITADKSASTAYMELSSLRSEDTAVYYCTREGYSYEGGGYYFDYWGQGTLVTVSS VL: DIQMTQSPSSLSASVGDRVTITCSVSSSVSYMYWYQQKPGKAPKLLIYDTSNLASGVPSRFSGSGSGTDFTFTISSLQPEDIATYYCQQWSTYPTFGQGTKLEIKR ... 0.000197
hz24F7.v2 S91T (antibody, human IgG1, kappa, N297G, V domains shown, hz24F7.v2 with a substitution in light chain CDR3) VH: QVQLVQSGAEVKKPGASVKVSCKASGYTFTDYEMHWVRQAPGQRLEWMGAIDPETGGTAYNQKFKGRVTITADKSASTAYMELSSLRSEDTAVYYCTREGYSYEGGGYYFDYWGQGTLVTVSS VL: DIQMTQSPSSLSASVGDRVTITCSVSSSVSYMYWYQQKPGKAPKLLIYDTSNLASGVPSRFSGSGSGTDFTFTISSLQPEDIATYYCQQWTSYPTFGQGTKLEIKR ... 0.000189
hz24F7.v2 S92D (antibody, human IgG1, kappa, N297G, V domains shown, hz24F7.v2 with a substitution in light chain CDR3) VH: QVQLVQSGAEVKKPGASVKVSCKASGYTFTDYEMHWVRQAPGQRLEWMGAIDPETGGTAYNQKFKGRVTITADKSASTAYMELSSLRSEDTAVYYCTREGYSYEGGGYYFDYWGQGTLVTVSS VL: DIQMTQSPSSLSASVGDRVTITCSVSSSVSYMYWYQQKPGKAPKLLIYDTSNLASGVPSRFSGSGSGTDFTFTISSLQPEDIATYYCQQWSDYPTFGQGTKLEIKR ... 0.000217
hz24F7.v2 S91Y (antibody, human IgG1, kappa, N297G, V domains shown, hz24F7.v2 with a substitution in light chain CDR3) VH: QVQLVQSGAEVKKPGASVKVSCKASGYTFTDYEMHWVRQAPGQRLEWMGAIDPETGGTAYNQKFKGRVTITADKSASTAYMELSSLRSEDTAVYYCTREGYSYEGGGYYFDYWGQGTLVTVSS VL: DIQMTQSPSSLSASVGDRVTITCSVSSSVSYMYWYQQKPGKAPKLLIYDTSNLASGVPSRFSGSGSGTDFTFTISSLQPEDIATYYCQQWYSYPTFGQGTKLEIKR ... 0.000184

Consider the record given below.
Q: Any idea what its koff is? The binder is hz24F7.v2 S91A (antibody, human IgG1, kappa, N297G, V domains shown, hz24F7.v2 with a substitution in light chain CDR3) VH: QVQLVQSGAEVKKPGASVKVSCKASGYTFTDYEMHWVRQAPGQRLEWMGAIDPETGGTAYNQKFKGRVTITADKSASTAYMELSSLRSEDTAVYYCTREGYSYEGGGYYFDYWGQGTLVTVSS VL: DIQMTQSPSSLSASVGDRVTITCSVSSSVSYMYWYQQKPGKAPKLLIYDTSNLASGVPSRFSGSGSGTDFTFTISSLQPEDIATYYCQQWASYPTFGQGTKLEIKR
A: 0.000169
